- Test system: Candida albicans
- TEST PROTOCOL: Experiment A: activity against vaginal candidosis in rats
- Assay type: in vivo, Female Wistar rats
- SETUP CONDITIONS: po, 336 h, orally once a day for two days starting from the day of infection, active at the 14th day after infection, read-out: Vaginal candidosis in rats: lowest effective dose in mg/kg orally
ENDPOINT NAME: minimal effective dose

q: Look up minimal effective dose for this molecule: CSc1nncn1-c1ccc(N2CCN(c3ccc(OC[C@H]4CO[C@](Cn5cncn5)(c5ccc(Cl)cc5Cl)O4)cc3)CC2)cc1 (relative stereo)
a: 2.5 mg/kg

q: Look up minimal effective dose for this molecule: CCCn1nc(C)n(-c2ccc(N3CCN(c4ccc(OC[C@H]5CO[C@](Cn6ccnc6)(c6ccc(Cl)cc6Cl)O5)cc4)CC3)cc2)c1=O (relative stereo)
a: 0.63 mg/kg

q: Look up minimal effective dose for this molecule: Clc1ccc([C@@]2(Cn3cncn3)OC[C@H](COc3ccc(N4CCN(c5ccc(-n6cnnn6)cc5)CC4)cc3)O2)c(Cl)c1 (relative stereo)
a: < 2.5 mg/kg

q: Look up minimal effective dose for this molecule: Cn1ncn(-c2ccc(N3CCN(c4ccc(OC[C@H]5CO[C@](Cn6ccnc6)(c6ccc(Cl)cc6Cl)O5)cc4)CC3)cc2)c1=O (relative stereo)
a: 1 mg/kg

q: Look up minimal effective dose for this molecule: Cn1ncn(-c2ccc(N3CCN(c4ccc(OC[C@H]5CO[C@](Cn6cncn6)(c6ccc(Cl)cc6Cl)O5)cc4)CC3)cc2)c1=O (relative stereo)
a: ≥ 0.63 mg/kg

q: Look up minimal effective dose for this molecule: CCn1nc(C)n(-c2ccc(N3CCN(c4ccc(OC[C@H]5CO[C@](Cn6cncn6)(c6ccc(Cl)cc6Cl)O5)cc4)CC3)cc2)c1=O (relative stereo)
a: < 0.63 mg/kg
